- target-of-assay: T1, bacterially produced human IL-6 (human, UniProt P05231 30-212)
- T1 construct: also called bactIL-6; prokaryotic IL-6
- measurement-description: SPR; periplasmic fraction; against parental 29B11
Below, each entry is listed with its recorded fold improvement ka.
Give just the numeric value; fold need not be written.

[
  {
    "binder": "Fab 47C2 (Fab, V domains shown, VL-shuffled Fab of 29B11, periplasmic fraction; also called 47C2 (R4)) VH: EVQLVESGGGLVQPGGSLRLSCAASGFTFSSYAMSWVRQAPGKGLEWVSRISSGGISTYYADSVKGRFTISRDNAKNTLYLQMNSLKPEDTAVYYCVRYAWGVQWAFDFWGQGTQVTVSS VL: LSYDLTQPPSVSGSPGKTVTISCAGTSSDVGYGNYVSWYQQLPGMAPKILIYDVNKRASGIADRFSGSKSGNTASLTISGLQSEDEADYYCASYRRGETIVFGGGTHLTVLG",
    "unit-tag": "fold",
    "fold improvement ka": 4.46
  }
]

Now consider the entry below.
Prompt line: # get_value(readout='fold improvement ka', item= Fab 55H1 (Fab, V domains shown, VL-shuffled Fab of 29B11, periplasmic fraction; also called 55H1c) VH: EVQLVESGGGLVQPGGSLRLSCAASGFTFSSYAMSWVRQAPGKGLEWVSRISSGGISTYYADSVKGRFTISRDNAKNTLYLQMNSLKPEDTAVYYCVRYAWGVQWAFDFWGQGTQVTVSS VL: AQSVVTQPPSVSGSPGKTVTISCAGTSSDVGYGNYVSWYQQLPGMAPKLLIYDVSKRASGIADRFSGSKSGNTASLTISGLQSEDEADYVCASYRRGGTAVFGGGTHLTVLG )
Response line: 5.1
